Tested on: M. Bovis BCG ΔMtpA
Type: cell-based
Could you mark each record 1 (yes) if its MIC for M. Bovis BCG ΔMtpA falls strictly under 20 µg/mL, and 0 (no) if it equals or exceeds it?

compound	label
CCn1cc(C(=O)O)c(=O)c2cc(F)c(N3CCNCC3)cc21 [Norfloxacin]	1 (yes)
CC1(C)S[C@@H]2[C@H](NC(=O)[C@H](N)c3ccccc3)C(=O)N2[C@H]1C(=O)O [Ampicillin]	0 (no)
O=C(N[C@H](CO)[C@H](O)c1ccc([N+](=O)[O-])cc1)C(Cl)Cl [Chloramphenicol]	0 (no)
[H]/N=C(/N)N[C@H]1[C@H](O)[C@@H](O)[C@H](O[C@@H]2O[C@@H](C)[C@](O)(C=O)[C@H]2O[C@@H]2O[C@@H](CO)[C@H](O)[C@@H](O)[C@@H]2NC)[C@@H](N/C(N)=N\[H])[C@@H]1O [Streptomycin]	1 (yes)
